TESTED_SYSTEM: human RORγt ligand binding domain (RORγt LBD) (Homo sapiens (Human))
Sequence (P51449 other isoform, or with tags, fused parts or gaps): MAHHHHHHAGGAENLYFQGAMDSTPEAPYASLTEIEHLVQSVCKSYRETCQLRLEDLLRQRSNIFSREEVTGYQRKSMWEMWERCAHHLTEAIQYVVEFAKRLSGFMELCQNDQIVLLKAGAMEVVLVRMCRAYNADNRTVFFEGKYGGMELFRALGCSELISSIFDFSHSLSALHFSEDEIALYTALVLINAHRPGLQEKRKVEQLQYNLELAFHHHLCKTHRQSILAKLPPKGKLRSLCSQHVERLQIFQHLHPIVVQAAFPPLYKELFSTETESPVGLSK
PROTOCOL_NOTES: RORγt ThermoFluor® assay (thermal shift binding)
RUN_PARAMETERS: read-out: ThermoFluor® Assay, Kd
# Lookup of reported log10 of Kd keyed by entry
REPORTED_METRIC: log10 of Kd (log10 of the value in nM)

MOLECULE	TESTED_SYSTEM	log10 of Kd
O=C(N[C@H]1CCC[C@@H]1O)c1nc(C(=O)N2C3CCC2CC3)c(-c2cnc(N[C@@H](C3CC3)C(F)(F)F)cc2C(F)F)s1	human RORγt ligand binding domain (RORγt LBD) (Homo sapiens (Human))	-0.54
C[C@H]1CCCN1C(=O)c1nc(C(=O)NCC(C)(C)O)sc1-c1cnc(N[C@H]2CCCC2(F)F)cc1C(F)(F)F (single isomer, unassigned)	human RORγt ligand binding domain (RORγt LBD) (Homo sapiens (Human))	1.26
[2H]C([2H])(NC(=O)c1nc(C(=O)N2CCC[C@@H]2C)c(-c2cnc(NC(C)(C)C)cc2C(F)(F)F)s1)C(C)(C)O	human RORγt ligand binding domain (RORγt LBD) (Homo sapiens (Human))	0.04
C[C@H](Nc1cc(C(F)F)c(-c2sc(C(=O)NCC(C)(C)O)nc2C(=O)N2CC(F)(F)C[C@@H]2C)cn1)C(F)(F)F	human RORγt ligand binding domain (RORγt LBD) (Homo sapiens (Human))	0.54
CC(Nc1cc(C(F)(F)F)c(-c2sc(C(=O)NCC(C)(C)O)nc2C(=O)N2CC(F)(F)C[C@@H]2C)cn1)C1CCC1 (stereo partly shown)	human RORγt ligand binding domain (RORγt LBD) (Homo sapiens (Human))	-0.11
C[C@H]1CCCN1C(=O)c1nc(C(=O)N[C@H]2C[C@H](O)C2)sc1-c1cnc(N[C@@H](C2CC2)C(F)(F)F)cc1C(F)F	human RORγt ligand binding domain (RORγt LBD) (Homo sapiens (Human))	0.94
CC[C@H](Nc1cc(C(F)F)c(-c2sc(C(=O)NC3CN(C(C)=O)C3)nc2C(=O)N2CCC[C@@H]2C)cn1)C(F)(F)F	human RORγt ligand binding domain (RORγt LBD) (Homo sapiens (Human))	1.67
C[C@H]1CCCN1C(=O)c1nc(C(=O)N[C@@H]2CCOC2)sc1-c1cnc(NC(C)(C)C)cc1C(F)(F)F	human RORγt ligand binding domain (RORγt LBD) (Homo sapiens (Human))	0.28
C[C@H]1CCCN1C(=O)c1nc(C(=O)NC[C@H](O)C(C)(C)O)sc1-c1cnc(NC(C)(C)C)cc1C(F)(F)F (single isomer, unassigned)	human RORγt ligand binding domain (RORγt LBD) (Homo sapiens (Human))	0.79
C[C@H](Nc1cc(C(F)F)c(-c2sc(C(=O)N[C@H]3CCC[C@@H]3O)nc2C(=O)N2CCC[C@@H]2C)cn1)C(F)(F)F	human RORγt ligand binding domain (RORγt LBD) (Homo sapiens (Human))	0.46
CC(C)[C@@H](C)Nc1cc(C(F)F)c(-c2sc(C(=O)NCC(C)(C)O)nc2C(=O)N2CCC[C@@H]2C)cn1	human RORγt ligand binding domain (RORγt LBD) (Homo sapiens (Human))	1.26
C[C@H](CO)NC(=O)c1nc(C(=O)N2CC(F)(F)C[C@@H]2C)c(-c2cnc(N[C@@H](C)C(F)(F)F)cc2C(F)F)s1	human RORγt ligand binding domain (RORγt LBD) (Homo sapiens (Human))	0.32
C[C@H]1CCCN1C(=O)c1nc(C(=O)NCC(C)(C)O)sc1-c1cnc(NCC(C)(C)C(F)(F)F)cc1C(F)(F)F	human RORγt ligand binding domain (RORγt LBD) (Homo sapiens (Human))	0.23
CCC(C)(C)Nc1cc(C(F)(F)F)c(-c2sc(C(=O)NCC(C)(C)O)nc2C(=O)N2CC(F)(F)C[C@@H]2C)cn1	human RORγt ligand binding domain (RORγt LBD) (Homo sapiens (Human))	-0.59
CC(C)[C@@H](C)NC(=O)c1nc(C(=O)N2CCC[C@@H]2C)c(-c2cnc(NC(C)(C)C)cc2C(F)(F)F)s1	human RORγt ligand binding domain (RORγt LBD) (Homo sapiens (Human))	0.60
C[C@H](CO)NC(=O)c1nc(C(=O)N2C3CCC2CC3)c(-c2cnc(NC(C)(C)C)cc2C(F)F)s1	human RORγt ligand binding domain (RORγt LBD) (Homo sapiens (Human))	0.48
C[C@H]1CC(F)(F)CN1C(=O)c1nc(C(=O)NCC(C)(C)O)sc1-c1cnc(NC(C2CC2)C2CC2)cc1C(F)F	human RORγt ligand binding domain (RORγt LBD) (Homo sapiens (Human))	-0.01
C[C@H](Nc1cc(C(F)F)c(-c2sc(C(=O)N[C@@H]3CC[C@@H](O)C3)nc2C(=O)N2C3CCC2CC3)cn1)C(F)(F)F	human RORγt ligand binding domain (RORγt LBD) (Homo sapiens (Human))	0.60
CC(C)(O)CNC(=O)c1nc(C(=O)N2CCC(F)CC2)c(-c2cnc(NC3CCCC3)cc2C(F)(F)F)s1	human RORγt ligand binding domain (RORγt LBD) (Homo sapiens (Human))	0.91
C[C@H](Nc1cc(C(F)F)c(-c2sc(C(=O)N[C@H]3C[C@H](O)C3)nc2C(=O)N2CCC[C@@H]2C)cn1)C(F)(F)F	human RORγt ligand binding domain (RORγt LBD) (Homo sapiens (Human))	1.67
C[C@H]1CCCN1C(=O)c1nc(C(=O)N[C@@H]2CC[C@H]2O)sc1-c1cnc(NC(C)(C)C)cc1C(F)F (relative stereo)	human RORγt ligand binding domain (RORγt LBD) (Homo sapiens (Human))	0.65
C[C@H]1CCCN1C(=O)c1nc(C(=O)N2CC(CO)C2)sc1-c1cnc(NC(C)(C)C)cc1C(F)(F)F	human RORγt ligand binding domain (RORγt LBD) (Homo sapiens (Human))	0.91
C[C@H]1CC(F)(F)CN1C(=O)c1nc(C(=O)NC2COCC2O)sc1-c1cnc(NC2(C)CCC2)cc1C(F)(F)F (stereo in doubt) [Example 185]	human RORγt ligand binding domain (RORγt LBD) (Homo sapiens (Human))	-0.64
C[C@H]1CCCN1C(=O)c1nc(C(=O)NCC(C)(C)O)sc1-c1cnc(NCC2(C(F)(F)F)CCC2)cc1C(F)F	human RORγt ligand binding domain (RORγt LBD) (Homo sapiens (Human))	-0.01
CC[C@H](Nc1cc(C(F)F)c(-c2sc(C(=O)N[C@H]3CCC[C@@H]3O)nc2C(=O)N2CC(F)(F)C[C@@H]2C)cn1)C(F)(F)F	human RORγt ligand binding domain (RORγt LBD) (Homo sapiens (Human))	-0.68
